Cited source for all entries: the supplement of paper PMC9170038

test system: MS2 coat protein; experiment: apparent KD of MS2 coat protein; designed switch direction (-1 OFF switch, 1 ON switch): 1; higher = weaker reporter binding; settings: input ligand: FMN 200 uM
Attribute: apparent KD of MS2 coat protein
Param answer (str): number followed by unit.

Observe how each entry below is paired with its result.
>>> reading("GUAGCAUACCGAGGAUAUUCAUAUUAUACAUGAGGAUCACCCAUGUUAGGCCGAUUACGGCCUUGGGAGAAGGCGGAAUGCUAC [Xeonanis - 20 Mod20] (Eterna round: R96, puzzle: Same State NG 2)")
"21.8 nM"
>>> reading("GCGAAAGCAGGAGGAUAUGCAGAGGAUCACCCUGUAGAAGGCCACAGAGGAGGAUAUGCAGAGGAUCACCCUGUAGAAGGCCAC [pwkr ssNG DX.17] (Eterna round: R96, puzzle: Same State NG 1)")
"176 nM"
>>> reading("UGGCUGGUGCUAGGAUAUGCAUGAGGCCUCCUCGUAGAAGGAGCGCGACAUGAGGAUCACCCAUGUAGCCGUCCGUAGACGGCU [salish99_SSNG1_r04_012] (Eterna round: R96, puzzle: Same State NG 1)")
"165 nM"
>>> reading("GAGGAACAGGCCAACAUGAGGAUCACCCAUGUCCUCGCAUUUCAGGAUAUCUGGAAGAAGAAGAAAGAGAAGGGAAGGUGAAGC [AK SSNG3-V2-34.1] (Eterna round: R96, puzzle: Same State NG 3)")
"114 nM"
>>> reading("CAGCGCUGUCGAGAGGAUAUGCGGUGAUGGACAUGAGGAUCACCCAUGUUAGCGACAGCAUCACGGCAGAAGGCUCUACCGCUGC [Soteed Omei mod 18] (Eterna round: R96, puzzle: Same State 2)")
"19.9 nM"

Give the measured apparent KD of MS2 coat protein of GGAUGAUAGACAGGAUAUUGAUUGUAAUUAGGACAAGAAGGGUCAAUGAUUUAAACGACCAGUUACAUGAGGAUCACCCAUGUU [JR_SSNG1_Sub026] (Eterna round: R96, puzzle: Same State NG 1) .
55.7 nM

Need apparent KD of MS2 coat protein of ACGCAAAAUGGAGGAUAUGGAGCCUUAUUGGCUCCAGAAGGUCAAAACAUGAGGAUCACCCAUGUGCGGUGGUCUAAUGACCAC [Eli NG1ss - 46] (Eterna round: R96, puzzle: Same State NG 1) , thanks.
41.5 nM

Recorded apparent KD of MS2 coat protein for GUGGUCAGACAUGAGGAUCACCCAUGUGGAAUAAAUAAGGGUUAGGAUAUCGAAUAUAGGAUAUACGAGAAGGGAUGGUUGGUG (Eterna round: R96, puzzle: Same State NG 3) , please?
135 nM

Sample UUGCUCGUGUGAGGAUAUGCCGCCGUUUCGGCUGCAGAAGGUGCUACGUUACAUGAGGAUCACCCAUGUCUCUGUUGUUUCGUG [salish99_SSNG1_r04_941] (Eterna round: R96, puzzle: Same State NG 1) — what was its apparent KD of MS2 coat protein?
17.5 nM

* * *

tested on: MS2 coat protein; assay: apparent KD of MS2 coat protein, switch ON state; designed switch direction (-1 OFF switch, 1 ON switch): -1; higher = weaker reporter binding; conditions: FMN input: 0 or 200 uM; Eterna round: R93 (includes R88 designs)
assayReadout: apparent KD of MS2 coat protein (nM)
Answer format: numeric, nM implied, no suffix.

Take a look at these entries with their results.
>>> reading("AAGGGACAUGAGGAUCACCCAUGUGAGGAUAUGACGUAAAUAAAGAAAGAAGAAAUCGUCAGAAGGCACACCAA [55%, Disencluded 2, 3]")
67
>>> reading("AACAGUACAGGAUAUACAUGAGGAUCACCCAUGUAAAAAUAAAAGGGCGUACCACAAAGUAGAAGGGUACUGGA [Moding Maslow revisited (73) 12]")
44.7

Now let's try a different one.
Looking for the measured apparent KD of MS2 coat protein of AAGAACCGAGGAUAUACAUGAGGAUCACCCAUGUAAAAGAAAGAGGGAAAAGAGAAAAGUAGAAGGCGGAAGAA [Berenice I] , can you help?
26.2
